Overview of recorded TGI for various compounds
Tested on: DU-145 prostate
method: NCI tumour cell line growth inhibition, 48 h
Where a SMILES comes first, the peptide text is derived from it. [ ]: non-standard residue; d: D form. The star is where a group is joined. Octanoyl = CCCCCCCC(=O)*; Aib = CC(C)(N)C(=O)O; tBu = CC(C)(C)*
parameter: TGI (µM)

- compound: "CCOC(=O)c1sc(=S)c2c(C(=O)OCC)c(C(=O)OCC)sc2c1C(=O)OCC"
  value_qualifier: "="
  experimental_value: 39
- compound: "COc1ccc(/C=C/C(=O)N[C@@H]2C(=O)N3[C@@H]2SC(C)(C)[C@@H]3C(=O)O)cc1"
  value_qualifier: ">"
  experimental_value: 100
- compound: "CCCCCCCC(=O)NC(C)(C)C(=O)NC(COC(C)(C)C)C(=O)NC(CC(C)C)C(=O)NC(C)(C)C(=O)NC(COC(C)(C)C)C(=O)NC(COC(C)(C)C)C(=O)NC(CC(C)C)C(=O)NC(C)(C)C(=O)NC(COC(C)(C)C)C(=O)NC(C(=O)NC(CC(C)C)C(=O)OC)C(C)CC (configuration not stated) (Octanoyl-[Aib]S(tBu)L[Aib]S(tBu)S(tBu)L[Aib]S(tBu)IL-OMe; configuration not given here)"
  value_qualifier: ">"
  experimental_value: 25
- compound: "Cc1n[nH]c(=O)n1/N=C/c1c[nH]c2ccccc12"
  value_qualifier: ">"
  experimental_value: 100
- compound: "NS(=O)(=O)c1ccc(CCN=C=S)cc1"
  value_qualifier: "="
  experimental_value: 3.83
- compound: "O=c1[nH]nc(Cc2ccc(Cl)cc2)n1/N=C\\c1ccc(/C=N/n2c(Cc3ccc(Cl)cc3)n[nH]c2=O)cc1"
  value_qualifier: ">"
  experimental_value: 100
- compound: "CCOC(=O)c1sc(Nc2ccc(Cl)cc2)nc1C"
  value_qualifier: "="
  experimental_value: 9.04

---

Overview of recorded TGI for various molecules
Test system: SF-295 CNS
method: NCI tumour cell line growth inhibition, 48 h
parameter: TGI (µM)

- molecule: "CCOC(=O)CCC(NC(=O)c1ccc(OCc2nc3ccccc3n3cccc23)cc1)C(=O)OCC (stereo unspecified)"
  system_under_test: "SF-295 CNS"
  value_qualifier: ">"
  experimental_value: 100
- molecule: "COc1cc(/C=C2\\COc3ccc(O)c(O)c3C2=O)cc(OC)c1"
  system_under_test: "SF-295 CNS"
  value_qualifier: "="
  experimental_value: 9.09
- molecule: "COc1ccc(/C=C/c2n[nH]c3ccc(N4CCOC4=O)cc23)cc1"
  system_under_test: "SF-295 CNS"
  value_qualifier: "="
  experimental_value: 29.2
- molecule: "COc1ccc2c(c1)CC[C@@H]1[C@@H]2CC[C@]2(C)C(c3ccco3)=C(C=O)C[C@@H]12"
  system_under_test: "SF-295 CNS"
  value_qualifier: "="
  experimental_value: 12.8
- molecule: "Cn1c2ccccc2c(=NNc2ccccc2C(=O)O)c2ccccc21"
  system_under_test: "SF-295 CNS"
  value_qualifier: "="
  experimental_value: 82.6
- molecule: "O=c1ccn2n1CCCCC2"
  system_under_test: "SF-295 CNS"
  value_qualifier: ">"
  experimental_value: 100
- molecule: "O=C1CCC2(CC1)SCCCS2"
  system_under_test: "SF-295 CNS"
  value_qualifier: ">"
  experimental_value: 100
- molecule: "COc1ccc2c(c1)N=C1CSC(c3cc([N+](=O)[O-])ccc3Cl)N1C2 (stereo unspecified)"
  system_under_test: "SF-295 CNS"
  value_qualifier: ">"
  experimental_value: 100
- molecule: "O=c1oc2ccc3ccccc3c2cc1-c1nc2ccccc2o1"
  system_under_test: "SF-295 CNS"
  value_qualifier: ">"
  experimental_value: 59.3
- molecule: "COc1ccccc1Cn1nc(OC)c2cc([N+](=O)[O-])ccc21"
  system_under_test: "SF-295 CNS"
  value_qualifier: "="
  experimental_value: 20
- molecule: "Cc1ccc(C)c(NC(=O)CC/C(=N\\NC(=O)C(N)=O)C(C)C(=O)c2ccc(O)cc2)c1 (stereo unspecified)"
  system_under_test: "SF-295 CNS"
  value_qualifier: ">"
  experimental_value: 100

---

Test system: DLD-1 colon
method: NCI tumour cell line growth inhibition, 48 h

- compound: "O=C1OC(O)C(Oc2ccc(Cl)cc2)=C1Cl (stereo not given)"
  TGI: "> 100 µM"
- compound: "CCCCCCCC/C=C\\CCCCCCCC(=O)NCCN(CCN)C(=O)CCCCCCC/C=C\\CCCCCCCC"
  TGI: "> 100 µM"
- compound: "Nc1ccn(C2CC(CO)C(O)C2O)c(=O)n1 (stereo not given)"
  TGI: "> 57.7 µM"
- compound: "N.N.NCCCCN.O=C([O-])C1(C(=O)[O-])CCC1.O=C([O-])C1(C(=O)[O-])CCC1.[Pt+4].[Pt+4]"
  TGI: "> 100 µM"
- compound: "CN(C)CC1(C)CC/C(=C\\c2ccccc2)C1=O (stereo not given)"
  TGI: "> 100 µM"

---

Overview of recorded TGI for various compounds
Tested on: UACC-257 melanoma
method: NCI tumour cell line growth inhibition, 48 h

- compound: "CN(CCCCN(C)CCc1ccc(Cl)c(Cl)c1)CCCCN1CCCC1"
  TGI: "3.06 µM"
- compound: "COc1ccc(/C(C)=N/OC(=O)c2c(-c3ccccc3Cl)noc2C)cc1CN1CCOCC1"
  TGI: "46.6 µM"
- compound: "O=c1oc2ccc3ccccc3c2cc1-c1nc2ccccc2o1"
  TGI: "99.2 µM"
- compound: "Cc1cc(Cl)ccc1N=C1NC(=O)C(CC(=O)Nc2ccc(Cl)cc2Cl)S1 (configuration not stated)"
  TGI: "> 100 µM"
- compound: "OC1CN2CCS[C@H]2C(O)C1O (some centres not stated)"
  TGI: "> 100 µM"
- compound: "COc1nc2sc3c(c2c(=O)n1CCCSSCCCn1c(OC)nc2sc4c(c2c1=O)CCCC4)CCCC3"
  TGI: "> 100 µM"
- compound: "COc1cc([N+](=O)[O-])ccc1NC1=CC(=O)CCC1"
  TGI: "> 100 µM"
- compound: "CN(C)c1nc(-c2ccccc2)c(C(=O)c2c[nH]c3ccccc23)s1"
  TGI: "> 100 µM"
- compound: "CCCCCCCCCCCCCCCCCCOCC(CO[P+](=O)O)OCCCCCCCCCCCCCCCCCC (configuration not stated)"
  TGI: "> 50 µM"
- compound: "NS(=O)(=O)c1ccc(CCN=C=S)cc1"
  TGI: "9.24 µM"
- compound: "O=C(/C=C/c1ccco1)CC(=O)/C=C/c1ccco1"
  TGI: "> 100 µM"
- compound: "CCOP(=O)(C=C=C(C)C)OCC"
  TGI: "> 100 µM"
- compound: "CC1OC(OCC2COC(O)(Oc3c(-c4ccc(O)c(O)c4)oc4cc(O)cc(O)c4c3=O)C(O)C2O)C(O)C(O)C1O (configuration not stated)"
  TGI: "> 100 µM"
- compound: "CNC(=O)CCCN(C)C(=O)CCCCC(=O)N(C)C"
  TGI: "> 100 µM"
- compound: "CC(C)(C)C(=O)C(C(c1ccccc1)N1CCOCC1)N1CCOCC1 (configuration not stated)"
  TGI: "> 100 µM"
- compound: "CCOC(=O)CCC(NC(=O)Cc1ccc(Oc2nc3ccccc3nc2-c2cccs2)cc1)C(=O)OCC (configuration not stated)"
  TGI: "> 100 µM"
- compound: "COc1cccc(N2C(=O)CSC2c2cc(OC)c(OC)c(OC)c2)c1 (configuration not stated)"
  TGI: "> 100 µM"
- compound: "Nc1ncnc2c1ncn2C1OC(CO)=CC1O (configuration not stated)"
  TGI: "> 37.5 µM"
- compound: "COc1ccc(/C=C/C(=O)N[C@@H]2C(=O)N3[C@@H]2SC(C)(C)[C@@H]3C(=O)O)cc1"
  TGI: "> 100 µM"
- compound: "NC1=NNC2(C(N)=N1)c1ccccc1-c1ccccc12"
  TGI: "> 10 µM"
- compound: "COc1cc(-c2cc(-c3nc4ccc(Cl)cc4[nH]3)[nH]n2)cc(OC)c1OC"
  TGI: "7.55 µM"
- compound: "CC(=O)Oc1cc2c(cc1OC(C)=O)[C@H]1CC[C@]3(C)[C@@H](OC(C)=O)CC[C@H]3[C@@H]1CC2"
  TGI: "22.4 µM"

---

Tested on: IGROV1 ovarian
method: NCI tumour cell line growth inhibition, 48 h
Overview of recorded TGI for various molecules

- molecule: "CCOC(=O)CCC(NC(=O)c1ccc(OCc2nc3ccccc3n3cccc23)cc1)C(=O)OCC (stereo not drawn)"
  TGI: "> 100 µM"
- molecule: "CC1=C(C(=O)Nc2ccc(Cl)c(Cl)c2)C(c2ccco2)C(C(=O)Nc2ccc(Cl)c(Cl)c2)=C(C)N1"
  TGI: "32.6 µM"
- molecule: "CCOC(=O)C1=c2[nH]c3cccc4cccc(c43)n2C=C(C(C)=O)C1CC(C)=O (stereo not drawn)"
  TGI: "> 100 µM"
- molecule: "NC(=S)N/N=C1/C(=O)N(c2ccc(Cl)cc2Cl)C(=O)C(=O)C1c1nc2ccccc2s1 (stereo not drawn)"
  TGI: "> 100 µM"
- molecule: "CCOC(=O)CCC(NC(=O)c1ccc(Nc2nc3ccccc3nc2-c2cccs2)cc1)C(=O)OCC (stereo not drawn)"
  TGI: "> 100 µM"
- molecule: "O=[N+]([O-])c1cc(-[n+]2cc([O-])on2)ccc1F"
  TGI: "28.3 µM"
- molecule: "Cn1c2ccccc2c(=NNc2ccccc2C(=O)O)c2ccccc21"
  TGI: "94.3 µM"
- molecule: "COC(=O)CCn1cnc2c(SC)ncnc21"
  TGI: "> 100 µM"
- molecule: "Cn1c(-c2ccc(/C=N\\N3CCN(/N=C/c4ccc(-c5c[n+]6ccsc6n5C)cc4)CC3)cc2)c[n+]2ccsc12"
  TGI: "> 100 µM"
- molecule: "COC(=O)[C@]1(C)CCC[C@@]2(C)C1CCC1=CC3(C(C)C)CCC12OO3 (stereo partly drawn)"
  TGI: "> 100 µM"
- molecule: "O=S(CCCl)c1c2ccccc2nc2ccccc12 (stereo not drawn)"
  TGI: "> 100 µM"
- molecule: "O=C(Nc1nc2ncn(CC(COc3ccccc3)OC(=O)c3ccccc3)c2c(=O)[nH]1)c1ccccc1 (stereo not drawn)"
  TGI: "> 100 µM"
- molecule: "CCOC(=O)CCC(NC(=O)Cc1ccc(Oc2nc3ccccc3nc2-c2cccs2)cc1)C(=O)OCC (stereo not drawn)"
  TGI: "> 100 µM"
- molecule: "COc1ccc(NC(=O)c2sc3nc(C)c(C(O)c4ccccc4)cc3c2N)cc1 (stereo not drawn)"
  TGI: "> 100 µM"
- molecule: "COc1ccc([C@H]2CC(=O)NCCCCN2)cc1"
  TGI: "> 100 µM"
- molecule: "O=C(CCc1cccc(O)c1)NCCc1ccc(O)cc1"
  TGI: "> 100 µM"
- molecule: "CCC(C)C(NC(=O)C1CCCN1C(=O)C(NC(=O)C(C)N)C(C)C)C(N)=O (stereo not drawn)"
  TGI: "> 100 µM"
- molecule: "CCOC(=O)NC(NC(C)CC)(C(F)(F)F)C(F)(F)F (stereo not drawn)"
  TGI: "> 100 µM"
